These measurements were taken from patent EP1893597B1.

Biological target: human iGluR4 (Homo sapiens)
Sequence (P48058 21-902): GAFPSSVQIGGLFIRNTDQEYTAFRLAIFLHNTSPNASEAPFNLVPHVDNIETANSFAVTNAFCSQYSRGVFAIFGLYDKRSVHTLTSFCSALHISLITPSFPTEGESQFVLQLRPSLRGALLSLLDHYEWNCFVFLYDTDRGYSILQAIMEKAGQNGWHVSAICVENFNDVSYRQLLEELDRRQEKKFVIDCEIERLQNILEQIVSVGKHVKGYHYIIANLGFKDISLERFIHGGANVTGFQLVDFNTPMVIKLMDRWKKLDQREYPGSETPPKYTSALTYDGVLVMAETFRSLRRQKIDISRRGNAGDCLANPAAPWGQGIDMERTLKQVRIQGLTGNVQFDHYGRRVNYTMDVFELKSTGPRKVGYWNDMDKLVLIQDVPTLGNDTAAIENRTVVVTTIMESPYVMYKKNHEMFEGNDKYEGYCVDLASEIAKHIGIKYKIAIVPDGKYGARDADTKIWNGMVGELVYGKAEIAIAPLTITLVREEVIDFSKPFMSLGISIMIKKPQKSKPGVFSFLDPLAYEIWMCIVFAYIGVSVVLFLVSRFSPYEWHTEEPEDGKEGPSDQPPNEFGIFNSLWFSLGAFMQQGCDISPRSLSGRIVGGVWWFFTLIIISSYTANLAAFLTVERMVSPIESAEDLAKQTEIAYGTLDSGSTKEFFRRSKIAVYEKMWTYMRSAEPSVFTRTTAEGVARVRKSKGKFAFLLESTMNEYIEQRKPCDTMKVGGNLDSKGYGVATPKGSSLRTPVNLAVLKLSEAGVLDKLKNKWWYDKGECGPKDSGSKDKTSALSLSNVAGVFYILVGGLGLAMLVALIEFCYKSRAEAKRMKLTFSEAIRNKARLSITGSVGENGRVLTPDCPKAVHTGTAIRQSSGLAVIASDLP
Test: Whole-cell voltage clamp potentiation of currents evoked by 1 mM glutamate in HEK293 cells stably expressing human iGluR4
Conditions: HEK293 cells stably expressing human iGluR4, voltage-clamped at -60mV, concentration increased in half log units, fit to the Hill equation
pEC50: −log10 of the molar value.
metric: pEC50

compound	target.system	quantitative.result
CC(C)S(=O)(=O)Nc1ccccc1-c1ccc(-c2ccc(-c3nnn[nH]3)cc2)cc1 [Example 77]	human iGluR4 (Homo sapiens)	6.35
